B1: PRPH (parent)
chain: DEIEFLKKLHEEELRDLQVSVESQ

variants of: B1; experiment: protein stability index of a GFP-peptide fusion (GPS, HEK-293T) (PSI 1-6); higher = more stable; conditions: c terminus: a fixed tail appended;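 further: lentivirally expressed fusions sorted by FACS into six bins by GFP to DsRed ratio, PSI derived from sequencing read proportions per bin multiplied by bin number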
Consider the following variants; for each one, report its protein stability index.
Give bare numbers.

// solved cases for protein stability index follow
# variant.annotation, protein stability index
measured = [
    ("F5M", 5),
    ("E22M", 4.27),
    ("F5T", 5.1),
    ("V19I", 5.18),
    ("R15H", 4.39),
]

Return reported protein stability index values for all items listed beneath this line.
1. E4P
2. F5N
3. K7Q
4. E11M
5. E13S
6. E13Y

A)
1: 4.62; 2: 4.9; 3: 4.61; 4: 3.99; 5: 4.16; 6: 3.95
